# Assay protocol: Human HepG2 cell viability assay in 384 well format
# Assay type: toxicity, cell-based
# Design: dose 125 nL, time 70.5 hour; concentration not given beside the values
# Measurement parameters: HepG2 cells, read-out: Inhibition
Reported property: cytotoxicity at 70.5 h (%)

>>> value_reported("CCNC(=O)NC(=O)C(C)N(C)CCOc1ccccc1C (stereo unspecified)")
-12.4
>>> value_reported("CNS(=O)(=O)c1cc(C(=O)NC2CCOc3ccccc32)cc(C)c1C (stereo unspecified)")
8.79
>>> value_reported("Cc1ccc(C)c(C(O)CN(C)Cc2nnc3ccccn23)c1 (stereo unspecified)")
9.37
>>> value_reported("Cc1nc(C)n(C2CCCN(C(=O)c3ccc(OC(C)C)nc3)C2)n1 (stereo unspecified)")
-0.207
>>> value_reported("CN(C)CC1(O)CCN(C(=O)c2cnc(-c3ccccn3)nc2)C1 (stereo unspecified)")
15.3
>>> value_reported("COCC(Nc1ncnc2c1CCNCC2)c1ccccn1 (stereo unspecified)")
-12.5
>>> value_reported("Cc1nn(CC(C)C)c(C)c1CC(=O)N1CCCC(NS(C)(=O)=O)C1 (stereo unspecified)")
-3.7
>>> value_reported("Cc1cc(OC(F)F)c(C(=O)N2CCN(C3CC3)CC2)s1")
-8.34
>>> value_reported("c1cc(COC[C@]23COC[C@H]2CN(Cc2ccsc2)C3)ccn1")
7.32
>>> value_reported("O=C(c1cccnc1O)N1CCN(CCc2cccs2)CC1")
-6.9
>>> value_reported("CN(C)S(=O)(=O)N1C[C@@H]2CC[C@H](C1)N(Cc1ccc3c(c1)OCCO3)C2")
-3.43
>>> value_reported("CC(C)C[C@H](NC(=O)Cn1ccc2c(Cl)cccc21)C(=O)O")
-15.2
>>> value_reported("COc1ccc(Cl)cc1NC(=O)CNc1ccn(CC(N)=O)n1")
20.1
>>> value_reported("FC(F)C(F)(F)COCc1ncnn1-c1ccc2c(c1)OCO2")
6.96
>>> value_reported("Fc1ccc2[nH]c(C3CCCN3CCc3ccccn3)nc2c1 (stereo unspecified)")
-8.26
>>> value_reported("CC(C)c1nc(CS(=O)(=O)Cc2noc(C3CC3)n2)cs1")
-13.6
>>> value_reported("NC(=O)CN(Cc1ccc(Br)cc1)C(=O)c1cnccn1")
-5.94
>>> value_reported("COCC1CCCN(C(=O)c2ccccc2NCc2cccnc2)C1 (stereo unspecified)")
3.32
>>> value_reported("Cc1nc(C)n(CC2CN(CCCOc3ccccc3)CCO2)n1 (stereo unspecified)")
-2.14
>>> value_reported("CC(=O)N1CCN(S(=O)(=O)c2ccc(C)c(F)c2)CC1")
-4.35
>>> value_reported("CCN1CCC(CNC(=O)C2(c3ccc(F)cc3)CC2)C1 (stereo unspecified)")
52
>>> value_reported("CC(=O)N1CCN(Cc2ccc(Cl)c(F)c2)CC(O)C1 (stereo unspecified)")
17.8
>>> value_reported("Cc1nc(CN2CCN(C(=O)NC(C)c3cccnc3)CC2)cs1 (stereo unspecified)")
30.6
>>> value_reported("CO[C@@H]1CCN(Cc2nccs2)C[C@@H]1Cc1cccc(C)c1")
-3.84
>>> value_reported("c1csc(CCNc2nc(-c3ccncc3)nc3c2CCNCC3)c1")
-6.1
>>> value_reported("CC(C)N1[C@H](Cn2cncn2)C[C@@H]2CNCC[C@@H]21")
0.707
>>> value_reported("CC(C)CCN1Cc2c(C(=O)O)ncn2-c2ccccc2S1(=O)=O")
30.1
>>> value_reported("CSC(CNS(N)(=O)=O)c1cccc(Cl)c1 (stereo unspecified)")
-1.44
>>> value_reported("O=C(Cc1cccs1)NC1(C(=O)NCC2CC2)CCCC1")
-7.33
>>> value_reported("CCN(CC1CN(CC2CCC2)CCO1)c1cccnn1 (stereo unspecified)")
-6.19
>>> value_reported("Cc1noc(C)c1CN1CCc2ncc(CN3CCCC3)n2CC1")
-5.92
>>> value_reported("COc1ncc(CN2C[C@@H]3CC[C@@](O)(c4ccc(C)cn4)[C@@H]3C2)cn1")
2.96
>>> value_reported("COCCCNC(=O)CN(C)C(C)c1nc(C(C)C)no1 (stereo unspecified)")
-4.17
>>> value_reported("Cc1c(S(=O)(=O)N2CCOCC2)cc2c(C)cc(=O)n3c2c1CCC3")
0.511
>>> value_reported("O=C(O)c1c[nH]c2cc(NS(=O)(=O)c3ccc(Cl)cc3F)ccc12")
-5.42
>>> value_reported("CC(C)C(NC(=O)c1ccc(Cl)cc1Cl)C(=O)Nc1cnn(C)c1 (stereo unspecified)")
4.14
